Values were extracted from patent US9776990B2.

# Tested on: H1975
# Experiment: Proliferation panel assay, H1975
# Type: cell-based
# Test Settings: Homo sapiens, NCI-H1975, 120 h; NSCLC, H1975, 5 days; read-out: Cellular Proliferation EC50
Measurement Type: EC50 (nM)

{"Given Smiles": "Cc1[nH]c(-c2cc(NS(C)(=O)=O)ccc2Oc2ccccc2)c2c1C(=O)CCC2", "Tested System": "H1975", "Numeric Value": 180}

----------
# Tested System: BRD4 (BDII_E352-M457) (Homo sapiens (Human), UniProt O60885)
# Experiment: TR-FRET bromodomain binding assay, BRD4 second bromodomain
# Test Settings: His-tagged BD2, 30 nM Alexa647 probe
pKi: −log10 of the molar value.
pKi values for the compounds below.

{"Given Smiles": "Cc1[nH]c(-c2ccc3c(c2)OCO3)c2c1C(=O)CC(C)(C)C2", "pKi": 6.29}
{"Given Smiles": "Cc1[nH]c(-c2cc(NS(C)(=O)=O)ccc2Sc2ccccc2)c2c1C(=O)CCC2", "pKi": 7.43}
{"Given Smiles": "Cc1[nH]c(-c2ccccc2N)c2c1C(=O)CCC2", "pKi": 4.82}
{"Given Smiles": "Cc1[nH]c(-c2ccc(S(N)(=O)=O)cc2)c2c1C(=O)CCC2", "pKi": 5.69}
{"Given Smiles": "Cc1ccccc1OCc1ccccc1-c1[nH]c(C)c2c1CCCC2=O", "pKi": 4.82}
